Entries and their IC50
System: MDA-MB-231
Test: Cytotoxicity against human MDA-MB-231 cells after 48 hrs by MTT assay
Format: functional, cell-based
Conditions: MDA-MB-231, 48 h
Report only the number, with the unit µM understood.

CCNC(=O)c1cc(Oc2cccc(NC(=S)Nc3cccc(C(F)(F)F)c3)c2)ccn1 :: 53.1

q: Tell me the measured IC50 of O=C(NC1CC1)c1cc(Oc2cccc(NC(=S)Nc3cccc(C(F)(F)F)c3)c2)ccn1 , please.
a: 34.8

q: Try the compound CC(C)NC(=O)c1cc(Oc2cccc(NC(=S)Nc3ccc(Cl)cc3)c2)ccn1
a: 87.5

q: Try the compound O=C(c1cc(Oc2cccc(NC(=S)Nc3ccc(Cl)c(C(F)(F)F)c3)c2)ccn1)N1CCCC1
a: 40.2

q: Try the compound O=C(NC1CC1)c1cc(Oc2cccc(NC(=S)Nc3ccc(Cl)c(C(F)(F)F)c3)c2)ccn1
a: 21.2

q: Try the compound O=C(c1cc(Oc2cccc(NC(=S)Nc3cccc(C(F)(F)F)c3)c2)ccn1)N1CCCC1
a: 35.4

q: Try the compound CNC(=O)c1cc(Oc2cccc(NC(=S)Nc3ccc(Cl)c(C(F)(F)F)c3)c2)ccn1
a: 35.7

q: Try the compound CCNC(=O)c1cc(Oc2cccc(NC(=S)Nc3ccc(Cl)c(C(F)(F)F)c3)c2)ccn1
a: 22.1

q: Try the compound O=C(NCc1ccccc1)c1cc(Oc2cccc(NC(=S)Nc3cccc(C(F)(F)F)c3)c2)ccn1
a: 75

----------
Test system: PC-3
Test: Cytotoxicity against human PC3 cells after 48 hrs by MTT assay
Format: functional, cell-based
Settings: PC-3, 48 h
Measured Property: pIC50
Just so you know, pIC50 here is -log10 of the concentration in molar units; reply with that number alone.

These solved cases illustrate the format of a correct answer.
O=C(NCc1ccccc1)c1cc(Oc2cccc(NC(=S)Nc3ccc(Cl)cc3)c2)ccn1 :: 4.80
CNC(=O)c1cc(Oc2cccc(NC(=S)Nc3ccc(Cl)cc3)c2)ccn1 :: 4.62
O=C(NC1CC1)c1cc(Oc2cccc(NC(=S)Nc3cccc(C(F)(F)F)c3)c2)ccn1 :: 4.66
O=C(c1cc(Oc2cccc(NC(=S)Nc3cccc(C(F)(F)F)c3)c2)ccn1)N1CCCC1 :: 4.57

q: # query: pIC50 | item CCNC(=O)c1cc(Oc2cccc(NC(=S)Nc3cccc(C(F)(F)F)c3)c2)ccn1 | system: PC-3
a: 4.74
